Target: T1, Recombinant soluble E protein (0.8E-His) from DENV-2 (DENV-2, UniProt P14340 281-675)
T1 construct: also called DENV-2 E protein; DV2
MEASUREMENT KIND: pKd
On this scale, pKd is minus log10 of a concentration expressed in M (mol/L).

# count of solved cases: 2
{"columns": ["BINDER", "pKd"],
 "data": [
  ["DG_3CH-SG182/3CL499-SK1 (antibody, V domains shown) VH: QVQLVQSGPDVEKPGASVKVSCKASGYTFTSNYIHWVRQAPGQGLEWMGVINPRGGSTASAQKFQGRITMTRDTSTSTVYMELSSLRSDDTAVYYCARGGRALFYDSYTTPRDGGSWWFDPWGQGSLVTVSS VL: DIQLTQSPSSLSASVGDRVTFTCQASQDIRKYLNWYQQKPGKAPKLLIYDASNLKFGVPSRFSGSGSGTDFTFTISSLQPEDVATYYCQQFDALPITFGQGTRLQIKR", 8.33],
  ["DG_3CH955-SG182/3CL-SK1 (antibody, V domains shown) VH: QVQLVQSGPDVEKPGASVKVSCKASGYTFTSNYIHWVRQAPGQGLEWMGVINPRGGSRRSAQKFQGRITMTRDTSTSTVYMELSSLRSEDTAVYYCARGGRALFYDSYTTPRDLGSWWFDPWGQGSLVTVSS VL: DIQLTQSPSSLSASVGDRVTFTCQASQDIRKYLNWYQQKPGKAPKLLIYDASNLKTGVPSRFSGSGSGTDFTFTISSLQPEDVATYYCQQFDDLPITFGQGTRLQIKR", 9.10]
]}

Attention now shifts to the item below.
Reported pKd ( DG_3CH-SG182/3CL563-SK1 (antibody, V domains shown) VH: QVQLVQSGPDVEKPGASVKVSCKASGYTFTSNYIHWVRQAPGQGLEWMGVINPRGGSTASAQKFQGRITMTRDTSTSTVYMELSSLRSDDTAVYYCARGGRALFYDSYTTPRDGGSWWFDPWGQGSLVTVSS VL: DIQLTQSPSSLSASVGDRVTFTCQASQDIRQYLNWYQQKPGKAPKLLIYDASNLKFGVPSRFSGSGSGTDFTFTISSLQPEDVATYYCQQFSALPITFGQGTRLQIKR ) = 8.35
